target: VEGFR2, unphosphorylated (Homo sapiens (Human), UniProt P35968); assay: VEGFR ADP GLO Assay
Sequence (P35968 20-1356): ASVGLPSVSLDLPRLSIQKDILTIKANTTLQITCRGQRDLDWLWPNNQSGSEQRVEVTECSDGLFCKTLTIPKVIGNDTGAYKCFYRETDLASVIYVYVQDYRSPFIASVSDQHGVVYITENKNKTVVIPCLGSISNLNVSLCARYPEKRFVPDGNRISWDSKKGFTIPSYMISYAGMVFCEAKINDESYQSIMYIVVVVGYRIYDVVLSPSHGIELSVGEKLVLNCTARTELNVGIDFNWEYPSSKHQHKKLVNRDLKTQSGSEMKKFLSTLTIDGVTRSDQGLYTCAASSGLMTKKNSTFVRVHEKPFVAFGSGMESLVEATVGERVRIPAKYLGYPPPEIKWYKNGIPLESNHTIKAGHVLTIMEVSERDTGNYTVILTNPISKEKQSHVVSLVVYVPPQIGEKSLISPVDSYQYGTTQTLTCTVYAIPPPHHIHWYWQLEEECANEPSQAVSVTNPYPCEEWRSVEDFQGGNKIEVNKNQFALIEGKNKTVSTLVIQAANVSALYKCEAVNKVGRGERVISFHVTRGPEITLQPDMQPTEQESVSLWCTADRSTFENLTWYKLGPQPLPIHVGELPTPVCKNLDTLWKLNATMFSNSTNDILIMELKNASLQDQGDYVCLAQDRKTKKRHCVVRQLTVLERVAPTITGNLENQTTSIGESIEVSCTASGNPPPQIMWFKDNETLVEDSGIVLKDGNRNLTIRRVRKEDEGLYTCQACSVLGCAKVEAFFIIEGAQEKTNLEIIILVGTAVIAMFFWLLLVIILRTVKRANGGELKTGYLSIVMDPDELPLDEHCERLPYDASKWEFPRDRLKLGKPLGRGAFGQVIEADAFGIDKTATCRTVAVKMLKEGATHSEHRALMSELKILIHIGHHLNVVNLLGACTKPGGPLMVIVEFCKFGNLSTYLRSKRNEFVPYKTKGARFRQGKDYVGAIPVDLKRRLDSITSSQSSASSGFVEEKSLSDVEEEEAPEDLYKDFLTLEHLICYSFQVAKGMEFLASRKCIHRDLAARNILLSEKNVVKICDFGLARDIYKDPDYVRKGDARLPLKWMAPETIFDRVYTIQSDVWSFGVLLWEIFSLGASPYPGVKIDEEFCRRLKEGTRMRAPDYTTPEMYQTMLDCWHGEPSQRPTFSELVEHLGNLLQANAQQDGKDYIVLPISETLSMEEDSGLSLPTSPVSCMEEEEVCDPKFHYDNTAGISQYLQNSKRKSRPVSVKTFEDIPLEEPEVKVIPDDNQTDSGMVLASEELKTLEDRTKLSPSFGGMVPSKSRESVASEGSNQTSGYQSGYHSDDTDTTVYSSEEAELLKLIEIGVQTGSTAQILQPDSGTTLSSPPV
metric: IC50

Study these solved cases before continuing.
smilesCode: Cc1ncc(NC(=O)CN2C[C@@H](C)O[C@H](C)C2)cc1NC(=O)c1cnn2cc(-c3cn(C)nc3C)sc12
metric: IC50
result: > 7.5 µM
--
smilesCode: Cc1ncc(NC(=O)NCC2CCN(C)CC2)cc1NC(=O)c1cnn2cc(-c3cnn(C)c3)sc12
metric: IC50
result: > 7.5 µM
--
smilesCode: Cc1ncc(NC(=O)CN2CCC[C@@H]2C)cc1NC(=O)c1cnn2cc(-c3cnn(CCO)c3)sc12
metric: IC50
result: > 7.5 µM

Entry CCOc1ncccc1-c1cn2ncc(C(=O)Nc3cc(NC(=O)CN4CC(C)(C)C4)cnc3C)c2s1 , IC50 reported as 4.3 µM

---

Test system His6-TEV-PDGFRβ (557-1016) (Homo sapiens (Human)), IC50 listed for each of the compounds.
Your answer should be a plain number; it is taken to be in pM.

compound: Cc1ncc(NC(=O)CN2CC(C)(C)C2)cc1NC(=O)c1cnn2cc(-c3nn(C)nc3C)sc12 [Example 445]
metric: IC50
quantitativeResult: 300
--
compound: Cc1ncc(NC(=O)CN(C)C2CCOCC2)cc1NC(=O)c1cnn2cc(-c3cnn(CC#N)c3)sc12 [Example 299]
metric: IC50
quantitativeResult: 500
--
compound: Cc1ncc(NC(=O)CN2CCC3(CC2)CC3)cc1NC(=O)c1cnn2cc(-c3cnn(CCO)c3)sc12 [Example 31]
metric: IC50
quantitativeResult: 600
--
compound: COc1ncccc1-c1cn2ncc(C(=O)Nc3cc(NC(=O)CN4CCCC5(CC5)C4)cnc3C)c2s1 [Example 321]
metric: IC50
quantitativeResult: 200
--
compound: Cc1ncc(NC(=O)CCN2CCCC2(C)C)cc1NC(=O)c1cnn2cc(-n3ncc4cccnc43)sc12 [Example 260]
metric: IC50
quantitativeResult: 300

Assay His6-TEV-PDGFRβ (557-1016) (Homo sapiens (Human)), sample COCCN(CCNC(=O)c1cnc(C)c(NC(=O)c2cnn3cc(-c4cnn(C)c4)sc23)c1)CCOC [Example 128] , IC50 read: 900

Given the compound COc1ncccc1-c1cn2ncc(C(=O)Nc3cc(NC(=O)CN4CCC5(CCOC5)C4)cnc3C)c2s1 (stereo not shown) [Example 320] and test system His6-TEV-PDGFRβ (557-1016) (Homo sapiens (Human)), the measured IC50 is 200

---

A short record of IC50 observed with His6-TEV-PDGFRβ (557-1016) (Homo sapiens (Human), UniProt P09619) follows.
Sequence (P09619 557-1016): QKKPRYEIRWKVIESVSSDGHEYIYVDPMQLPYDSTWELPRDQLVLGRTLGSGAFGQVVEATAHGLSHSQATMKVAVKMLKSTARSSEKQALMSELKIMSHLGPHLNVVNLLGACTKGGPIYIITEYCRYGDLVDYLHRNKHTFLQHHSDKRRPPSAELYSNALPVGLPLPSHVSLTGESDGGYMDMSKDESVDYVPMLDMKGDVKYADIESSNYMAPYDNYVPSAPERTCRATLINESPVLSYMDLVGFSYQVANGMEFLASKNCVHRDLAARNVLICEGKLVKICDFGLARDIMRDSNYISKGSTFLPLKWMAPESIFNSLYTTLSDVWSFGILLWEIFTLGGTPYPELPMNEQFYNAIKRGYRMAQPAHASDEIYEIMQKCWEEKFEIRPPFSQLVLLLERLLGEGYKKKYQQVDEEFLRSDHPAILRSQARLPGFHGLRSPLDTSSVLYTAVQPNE
Reply numerically in nM, unit not repeated.

Here is how some compounds turned out for IC50.
compound: COCCn1cc(-c2cn3ncc(C(=O)Nc4cc(NC(=O)C[C@H]5CCN(C(C)C)C5)cnc4C)c3s2)cn1 [Example 486]
quantitativeResult: 2.6
//
compound: Cc1ncc(NC(=O)[C@H]2CCCN2C(C)C)cc1NC(=O)c1cnn2cc(-c3cnn4c3OCCC4)sc12 [Example 347]
quantitativeResult: 0.5
//
compound: Cc1ncc(NC(=O)CN2CC(C)(C)C2)cc1NC(=O)c1cnn2cc(-c3cnn(CC(N)=O)c3)sc12 [Example 267]
quantitativeResult: 0.9
//
compound: Cc1ncc(C(=O)NCCN2CCCC2(C)C)cc1NC(=O)c1cnn2cc(-c3ccnc(N4CCOCC4)c3)sc12 [Example 483]
quantitativeResult: 0.3
//
compound: Cc1cc(C(=O)NCCN2CCC(O)CC2)sc1NC(=O)c1cnn2cc(-c3cnn(C)c3)sc12 [Example 191]
quantitativeResult: 248

Recorded IC50 for Cc1ncc(NC(=O)CN2CC3(CCCCO3)C2)cc1NC(=O)c1cnn2cc(-c3cnn4c3OCCC4)sc12 [Example 423] on His6-TEV-PDGFRβ (557-1016) (Homo sapiens (Human), UniProt P09619) was 0.4

Hey, His6-TEV-PDGFRβ (557-1016) (Homo sapiens (Human), UniProt P09619) data for CCOc1ncccc1-c1cn2ncc(C(=O)Nc3cc(NC(=O)CN4CC(C)(C)C4)cnc3C)c2s1 [Example 436] : IC50 came out at 0.1

Given the compound Cc1ncc(NC(=O)CN2CC(C)(C)C2)cc1NC(=O)c1cnn2cc(-c3cncnc3C)sc12 [Example 398] and test system His6-TEV-PDGFRβ (557-1016) (Homo sapiens (Human), UniProt P09619), the measured IC50 is 6.8

Tested system His6-TEV-PDGFRβ (557-1016) (Homo sapiens (Human), UniProt P09619); IC50 recorded for Cc1ncc(NC(=O)CN2CCCC3(COC3)C2)cc1NC(=O)c1cnn2cc(-c3cnn(C)c3)sc12 [Example 24] was 0.7

Observed IC50, His6-TEV-PDGFRβ (557-1016) (Homo sapiens (Human), UniProt P09619), COc1ncccc1-c1cn2ncc(C(=O)Nc3cc(C(=O)NCCN4CCC[C@H]4C)cnc3C)c2s1 [Example 242] : 0.2

Form: item Cc1ncc(C(=O)NCCN2Cc3ncsc3C2)cc1NC(=O)c1cnn2cc(-c3cnn(C)c3)sc12 [Example 111] ; test system His6-TEV-PDGFRβ (557-1016) (Homo sapiens (Human), UniProt P09619); IC50: 1.1

The compound COCCn1cc(-c2cn3ncc(C(=O)Nc4cc(NC(=O)CCN5CCCC5(C)C)cnc4C)c3s2)cn1 [Example 41] on His6-TEV-PDGFRβ (557-1016) (Homo sapiens (Human), UniProt P09619): IC50 was 0.43

Tested on His6-TEV-PDGFRβ (557-1016) (Homo sapiens (Human), UniProt P09619), the item CCCNCC(=O)Nc1cnc(C)c(NC(=O)c2cnn3cc(-c4cnn5c4CCC5)sc23)c1 [Example 456] showed IC50 equal to 0.4

// compound Cc1ncc(NC(=O)C2CCN(C(C)C)C2)cc1NC(=O)c1cnn2cc(-c3cn(C)nc3C)sc12 (stereo not drawn) [Example 355] , assay His6-TEV-PDGFRβ (557-1016) (Homo sapiens (Human), UniProt P09619), IC50 value: 0.4

So the reported IC50 for CCc1ncccc1-c1cn2ncc(C(=O)Nc3cc(NC(=O)CN4CC(C)(C)C4)cnc3C)c2s1 [Example 391] , on His6-TEV-PDGFRβ (557-1016) (Homo sapiens (Human), UniProt P09619), turned out to be 0.9
